# ASSAY_SUMMARY: StAR promoter reporter inhibitors, counter-screen for LRH-1 inverse agonist project, cell-based, luminescence, high throughput (AID 651611)
# STATED_CONDITIONS: StAR promoter luciferase reporter counterscreen, at 3.6 µM, hits give high values
MEASUREMENT_TYPE: inhibition (%)
Write the value in % as a bare number.

For orientation, consider the following solved cases.
* CC(C)CC1(C)NC(=O)N(CC(=O)Nc2ccc3c(c2)OCCO3)C1=O (configuration not stated) | 16.7
* O=C(CCl)Nc1ccccc1C(=O)c1ccccc1 | 1.14
* CCOc1ccc(CCNC(=O)COC(=O)CSc2ccccc2C)cc1OCC | 2.02
* O=[N+]([O-])c1cccc(-c2nc(-c3cccs3)c(-c3cccs3)[nH]2)c1 | 19.7
* O=C(Cc1c(F)cccc1Cl)Nc1ccncc1 | 3.12
* O=C(CSc1nc2ccc(F)cc2c(=O)n1-c1ccccc1)Nc1ccc2c(c1)CCC2 | -3.68

Okay, now this compound:
Would you mind telling me what inhibition value was observed for Cc1nnsc1S(=O)c1ccc(Br)cc1 (configuration not stated) ?
4.11
